The reported measurements were obtained from the supplement of paper PMC9112550.

tested on: Escherichia coli TOP10; assay: shrunken log2 fold change of peptide-encoding DNA abundance (4.5 h post-induction vs induction); higher = less antimicrobial activity (less host growth inhibition); settings: time post-induction: 4.5 h; library: site-saturation at positions 5, 18, 19, 20
Binary call on shrunken log2 fold change: Criterion met from 0.3 upward, Criterion not met beneath that.

| sequence-input | assigned-category |
| --- | --- |
| RRIRWRPPRLPRPRPRPILCPRP | Criterion not met |
| RRIRIRPPRLPRPRPRPPPPPRP | Criterion met |
| RRIRMRPPRLPRPRPRPASCPRP | Criterion met |
| RRIRIRPPRLPRPRPRPAHDPRP | Criterion not met |
| RRIRPRPPRLPRPRPRPIVVPRP | Criterion not met |
| RRIRFRPPRLPRPRPRPEAPPRP | Criterion met |
| RRIRLRPPRLPRPRPRPEWSPRP | Criterion not met |

====

tested on: Escherichia coli TOP10; experiment: shrunken log2 fold change of peptide-encoding DNA abundance (4.5 h post-induction vs induction); higher = less antimicrobial activity (less host growth inhibition); details: time post-induction: 4.5 h; library: site-saturation at positions 5, 18, 19, 20
Recorded shrunken log2 fold change split into classes L: < -0.1; M: ≥ -0.1 and < 0.3; H: ≥ 0.3

| sequence-input | assigned-category |
| --- | --- |
| RRIRARPPRLPRPRPRPKMAPRP | M |
| RRIRFRPPRLPRPRPRPTHFPRP | L |
| RRIRMRPPRLPRPRPRPPEEPRP | H |
| RRIRDRPPRLPRPRPRPMFPPRP | L |
| RRIRERPPRLPRPRPRPWNVPRP | M |
| RRIRPRPPRLPRPRPRPYNGPRP | L |
| RRIRERPPRLPRPRPRPLPIPRP | M |
| RRIRSRPPRLPRPRPRPHHWPRP | L |
| RRIRMRPPRLPRPRPRPDWEPRP | H |
| RRIRERPPRLPRPRPRPVGVPRP | M |
| RRIRVRPPRLPRPRPRPWWEPRP | M |
| RRIRPRPPRLPRPRPRPVVDPRP | L |
| RRIRYRPPRLPRPRPRPNQEPRP | M |
| RRIRARPPRLPRPRPRPSANPRP | H |

====

test system: Escherichia coli TOP10; assay: shrunken log2 fold change of peptide-encoding DNA abundance (4.5 h post-induction vs induction); higher = less antimicrobial activity (less host growth inhibition); settings: time post-induction: 4.5 h; library: site-saturation at positions 5, 18, 19, 20;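 further: peptides expressed intracellularly from a pBAD plasmid library in pooled LB shake-flask culture, induced with 0.3% L-arabinose, DNA abundance read by NGS, three biological replicates, DESeq2 with apeglm shrinkage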
Binary call on shrunken log2 fold change: true from -0.09 upward, false beneath that.

| sequence-input | assigned-category |
| --- | --- |
| RRIRDRPPRLPRPRPRPYQHPRP | false |
| RRIRCRPPRLPRPRPRPETNPRP | true |
| RRIRWRPPRLPRPRPRPDWMPRP | true |
| RRIRNRPPRLPRPRPRPQWFPRP | true |
| RRIRKRPPRLPRPRPRPIPLPRP | true |
| RRIRGRPPRLPRPRPRPYISPRP | false |
| RRIRVRPPRLPRPRPRPPSLPRP | true |
| RRIRMRPPRLPRPRPRPLNGPRP | true |
| RRIRPRPPRLPRPRPRPSCHPRP | false |
| RRIRNRPPRLPRPRPRPIHFPRP | false |
| RRIRNRPPRLPRPRPRPKQNPRP | true |
| RRIRWRPPRLPRPRPRPHFDPRP | true |
| RRIRARPPRLPRPRPRPNALPRP | true |
| RRIRHRPPRLPRPRPRPFQYPRP | false |
